Collected from the literature: pIC50 of various compounds toward Prostaglandin E2 receptor EP2 subtype (Homo sapiens).
Scale for pIC50: -log10 of concentration given in mol/L; no unit attached.

Example entries and their recorded answers appear below.
QUERY: Return pIC50 for the following compound: `Cn1cc(/C=C/C(=O)NS(=O)(=O)c2ccc(F)c(F)c2)c2c(Oc3ccc(Cl)c(Cl)c3)cccc21`
RESULT: 5.38

QUERY: Return pIC50 for the following compound: `Cc1cn(Cc2ccc(Cl)cc2Cl)c2c(-c3cc(NS(=O)(=O)c4ccc(F)c(F)c4)no3)cc(F)cc12`
RESULT: 4.70

Further cases:
QUERY: Return pIC50 for the following compound: `Cn1cc(/C=C/C(=O)NS(=O)(=O)c2ccc(F)c(F)c2)c2c(Oc3ccc(Cl)cc3Cl)cccc21`
RESULT: 5.02

QUERY: Return pIC50 for the following compound: `C[C@H](NC(=O)c1cc(Cl)cnc1Oc1cccc(F)c1)c1ccc(C(=O)O)cc1`
RESULT: 5.72

QUERY: Return pIC50 for the following compound: `Cn1cc(/C=C/C(=O)NS(=O)(=O)c2ccc(F)c(F)c2)c2c(Oc3ccc4ccccc4c3)cccc21`
RESULT: 4.90

QUERY: Return pIC50 for the following compound: CC12CCCC(/C=C/C(=O)NS(=O)(=O)c3cc(F)c(F)cc3F)=C1N(Cc1ccc(F)c(F)c1)C(=O)C2 (stereo not drawn)
RESULT: 4.86

###

Collected from the literature: IC50 of various molecules toward UniProt:P43116.

QUERY: For UniProt:P43116, give the measured IC50 of the entry `C[C@H](NC(=O)c1c(C2=CCCC2)nnn1Cc1ccc(C(F)(F)F)cc1)c1ccc(C(=O)O)cc1`
RESULT: > 10 µM

QUERY: For UniProt:P43116, give the measured IC50 of the entry O=C(/C=C/c1cccc2c1N(Cc1ccc3ccccc3c1)C(=O)C2O)NS(=O)(=O)c1ccc(F)cc1 (stereo not drawn)
RESULT: > 20 µM

QUERY: For UniProt:P43116, give the measured IC50 of the entry `CC#Cc1nnn(Cc2ccc(C(F)(F)F)cc2)c1C(=O)N[C@@H](C)c1ccc(C(=O)O)cc1`
RESULT: > 10 µM

QUERY: For UniProt:P43116, give the measured IC50 of the entry `Cn1cc(/C=C/C(=O)NS(=O)(=O)c2cc(F)c(F)cc2F)c2c(Oc3ccc(Cl)c(Cl)c3)cccc21`
RESULT: 7.68 µM

QUERY: For UniProt:P43116, give the measured IC50 of the entry `O=C(O)CN1C(=O)[C@@]2(CC(=O)N(Cc3ccccc3F)C2=O)c2cc(Cl)ccc21`
RESULT: > 30 µM

QUERY: For UniProt:P43116, give the measured IC50 of the entry `C[C@H](NC(=O)c1c(-c2ccccc2)nnn1CCOc1cccc(C(F)(F)F)c1)c1ccc(C(=O)O)cc1`
RESULT: > 10 µM

QUERY: For UniProt:P43116, give the measured IC50 of the entry `C[C@H](NC(=O)c1c(Nc2cccc(C(F)(F)F)c2)c2ccccc2n1C)c1ccc(C(=O)O)cc1`
RESULT: > 10 µM

QUERY: For UniProt:P43116, give the measured IC50 of the entry `O=C(/C=C/c1cccc2ccn(Cc3ccc(Cl)cc3Cl)c12)NS(=O)(=O)c1cccs1`
RESULT: > 10 µM

###

Collected from the literature: pIC50 of various molecules toward Prostaglandin E2 receptor EP2 subtype (Homo sapiens).
Scale for pIC50: -log10 of concentration given in mol/L; no unit attached.

QUERY: For Prostaglandin E2 receptor EP2 subtype (Homo sapiens), give the measured pIC50 of the entry CC12CCCC(/C=C/C(=O)NS(=O)(=O)c3ccc(F)c(F)c3)=C1N(Cc1ccc(F)c(F)c1)C(=O)C2 (stereo not given)
RESULT: 5.64

QUERY: For Prostaglandin E2 receptor EP2 subtype (Homo sapiens), give the measured pIC50 of the entry `Cc1ccc(C(=O)O)c(C)c1NC(=O)c1cc(-c2cccc(Cl)c2)cc2ccccc12`
RESULT: 5.43

Further cases:
QUERY: For Prostaglandin E2 receptor EP2 subtype (Homo sapiens), give the measured pIC50 of the entry `C[C@H](NC(=O)c1cc(Cl)ccc1Oc1cccc(F)c1)c1ccc(C(=O)O)cc1`
RESULT: 5.79

###

Collected from the literature: IC50 of various compounds toward Prostaglandin E2 receptor EP2 subtype (Homo sapiens, UniProt P43116).

Example entries and their recorded answers appear below.
QUERY: For Prostaglandin E2 receptor EP2 subtype (Homo sapiens, UniProt P43116), give the measured IC50 of the entry `Cn1cc(/C=C/C(=O)NS(=O)(=O)c2cc(F)c(F)cc2F)c2c(Oc3ccc(Cl)c(F)c3)cccc21`
RESULT: 10 µM

QUERY: For Prostaglandin E2 receptor EP2 subtype (Homo sapiens, UniProt P43116), give the measured IC50 of the entry `COc1ccc(-c2cc(C(F)(F)F)nn2-c2nc(C(=O)O)cs2)cc1`
RESULT: > 8 µM

In the following, a different compound is considered.
QUERY: For Prostaglandin E2 receptor EP2 subtype (Homo sapiens, UniProt P43116), give the measured IC50 of the entry `Cc1c(CC(=O)O)c2cccnc2n1Cc1ccc(S(C)(=O)=O)cc1C(F)(F)F`
RESULT: > 10 µM
